Biological target: Transcriptional activator protein LasR (Pseudomonas aeruginosa (strain ATCC 15692 / PAO1 / 1C / PRS 101 / LMG12228)) (UniProt P25084)
Sequence (P25084 whole entry): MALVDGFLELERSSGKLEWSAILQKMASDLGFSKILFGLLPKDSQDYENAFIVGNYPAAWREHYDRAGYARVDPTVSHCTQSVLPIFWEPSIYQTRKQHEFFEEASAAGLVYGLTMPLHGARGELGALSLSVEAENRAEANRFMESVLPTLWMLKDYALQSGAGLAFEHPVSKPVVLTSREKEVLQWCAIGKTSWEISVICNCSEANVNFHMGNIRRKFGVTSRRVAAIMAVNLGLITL
Assay: Inhibition of OdDHL-induced LasR activation in Pseudomonas aeruginosa PAKR02 harboring lasB::luxCDABE gene assessed as remaining Las activity at 10^-4 M after 24 hrs by bioluminescence assay
true means recorded Activity is 20% or above; false means it is below 20%.

[[record]]
structure_notation = "CCCCCCCCN(CCO)C(=O)CC(=O)N[C@H]1CCOC1=O"
label_value = "false"

[[record]]
structure_notation = "CCCCCCCCNC(=O)CC(=O)NC1CCCCCC1"
label_value = "false"

[[record]]
structure_notation = "CCOCCOCCNC(=O)CC(=O)N[C@@H]1CCC[C@@H]1O"
label_value = "true"

[[record]]
structure_notation = "CCCCCCCCCNC(=O)CC(=O)N[C@H]1CCOC1=O"
label_value = "false"

[[record]]
structure_notation = "CCCCCCCCOC(=O)CC(=O)N[C@H]1CCOC1=O"
label_value = "true"

[[record]]
structure_notation = "CCCCCCCCCCCNC(=O)CC(=O)N[C@H]1CCOC1=O"
label_value = "false"

[[record]]
structure_notation = "CCCCCCCCNC(=O)CC(=O)N[C@@H]1CCCC[C@@H]1O"
label_value = "true"

[[record]]
structure_notation = "CCCCCCCCCSCC(=O)N[C@H]1CCOC1=O"
label_value = "true"

[[record]]
structure_notation = "CCCCCCCCNC(=O)C(F)(F)C(=O)N[C@H]1CCOC1=O"
label_value = "false"

[[record]]
structure_notation = "CCCCCCCCCC(=O)CC(=O)Nc1nccs1"
label_value = "true"


q: Hello, I need to know if CCCCCCCCC/C(O)=C1/C(=O)N[C@@H](CCO)C1=O has measured Activity not below 20%. Thanks!
a: true

q: Hello, I need to know if CCCCCCCCN(CCC)C(=O)CC(=O)N[C@H]1CCOC1=O has measured Activity not below 20%. Thanks!
a: true
